Reported GI50 values for a set of compounds
system: T-47D breast; assay: NCI tumour cell line growth inhibition, 48 h

# example entries with known answers
>  <smiles-input>
COc1cc2cc(Oc3ccc(NC(=O)Nc4cc(C(F)(F)F)cc(C(F)(F)F)c4)cc3)c(C)nc2cc1OCCN1CCCCC1

>  <tested-target>
T-47D breast

>  <GI50>
1.85 µM

$$$$
>  <smiles-input>
c1ccc2c(Nc3ccc4c(c3)OCO4)c3ccoc3nc2c1

>  <tested-target>
T-47D breast

>  <GI50>
29.3 µM

$$$$

Query (compound): `Cc1cncc2cccc(S(=O)(=O)N3CCCNC[C@@H]3C)c12` ; field requested: GI50
> 80.3 µM

Provenance of the data: PubChem BioAssay (NCI)
